target: FLK-1 receptor (Mus musculus); construct: expressed in transfected cells; host or cells: NIH3T3 C7#3; assay: FLK-1 ELISA (kinase activity of the FLK-1 receptor in FLK-1/NIH3T3 cells, VEGF stimulated); type: cell-based
Sequence (P35918 20-1345): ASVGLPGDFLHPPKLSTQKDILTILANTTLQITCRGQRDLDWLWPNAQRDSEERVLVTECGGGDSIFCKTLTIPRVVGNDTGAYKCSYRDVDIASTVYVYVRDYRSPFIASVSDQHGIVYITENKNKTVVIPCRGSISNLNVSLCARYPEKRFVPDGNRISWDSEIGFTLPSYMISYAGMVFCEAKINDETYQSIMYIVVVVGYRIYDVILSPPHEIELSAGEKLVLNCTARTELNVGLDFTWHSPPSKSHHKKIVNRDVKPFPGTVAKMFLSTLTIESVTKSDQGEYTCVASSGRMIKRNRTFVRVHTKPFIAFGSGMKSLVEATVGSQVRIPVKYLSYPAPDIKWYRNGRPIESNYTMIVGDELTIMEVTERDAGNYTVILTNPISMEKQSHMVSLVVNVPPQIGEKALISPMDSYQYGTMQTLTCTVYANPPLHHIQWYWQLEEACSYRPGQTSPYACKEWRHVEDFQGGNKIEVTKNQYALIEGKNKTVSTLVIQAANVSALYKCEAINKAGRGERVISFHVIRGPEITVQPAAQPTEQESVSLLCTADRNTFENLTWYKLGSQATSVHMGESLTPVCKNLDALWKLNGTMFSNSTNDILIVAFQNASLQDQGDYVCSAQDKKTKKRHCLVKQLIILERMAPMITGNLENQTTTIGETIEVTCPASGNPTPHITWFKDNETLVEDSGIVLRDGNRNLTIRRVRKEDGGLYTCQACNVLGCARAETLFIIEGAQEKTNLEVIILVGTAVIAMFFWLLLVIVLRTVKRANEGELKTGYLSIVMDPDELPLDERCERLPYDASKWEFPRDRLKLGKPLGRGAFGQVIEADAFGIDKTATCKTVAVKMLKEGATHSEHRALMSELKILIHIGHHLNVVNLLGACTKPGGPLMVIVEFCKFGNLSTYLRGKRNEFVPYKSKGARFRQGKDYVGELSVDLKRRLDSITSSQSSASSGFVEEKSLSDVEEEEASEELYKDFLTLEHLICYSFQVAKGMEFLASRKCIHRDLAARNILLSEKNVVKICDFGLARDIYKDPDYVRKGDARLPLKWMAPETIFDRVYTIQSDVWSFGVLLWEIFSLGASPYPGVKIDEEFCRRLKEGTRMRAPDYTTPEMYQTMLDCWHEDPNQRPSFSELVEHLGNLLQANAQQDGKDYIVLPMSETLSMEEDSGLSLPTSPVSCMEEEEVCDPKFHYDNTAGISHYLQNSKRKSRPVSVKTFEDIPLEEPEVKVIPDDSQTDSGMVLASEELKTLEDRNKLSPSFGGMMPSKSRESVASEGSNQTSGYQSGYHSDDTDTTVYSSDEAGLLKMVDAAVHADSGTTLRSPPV
Reported Fik Kinase %Inhibition values are given for each entry in this list.
parameter: Fik Kinase %Inhibition (%)

> print(dat)
                             compound.smiles  measurement
 1  O=C1Nc2ccc(S(=O)(=O)Nc3ccc(C(F)(F)F)cc3)cc2C1=Cc1cc(O)c2c(c1O)CCCC2        -40.0
 2  O=C1Nc2ccc(S(=O)(=O)Nc3ccc(C(F)(F)F)cc3)cc2C1=Cc1cccc(F)c1O         26.6
 3  O=C1Nc2ccc(I)cc2C1=Cc1ccc(-c2ccccc2Cl)o1          0.6
 4  COc1c(C(C)(C)C)cc(C=C2C(=O)Nc3ccc(CCCl)cc32)cc1C(C)(C)C         11.5
 5     Cc1c(Br)ccc2c1C(=Cc1ccc(O)cc1)C(=O)N2         31.2
 6  COc1ccc(C=C2C(=O)Nc3ccc(S(=O)(=O)Nc4ccc(C(F)(F)F)cc4)cc32)c2ccccc12          6.9
 7  Cc1c(Br)ccc2c1C(=Cc1ccc([N+](=O)[O-])c(O)c1)C(=O)N2        -18.6
 8  O=C1Nc2ccc(CCCl)cc2C1=Cc1cc(C(F)(F)F)ccc1F         21.4
 9  O=C1Nc2ccc(S(=O)(=O)Nc3ccc(C(F)(F)F)cc3)cc2C1=Cc1cc2c(cc1Cl)OCO2         14.2
10  O=C1Nc2c(Br)cc(Br)cc2C1=Cc1cccc([N+](=O)[O-])c1         10.9
11   CCN(CC)c1ccc(C=C2C(=O)Nc3ccc(I)cc32)cc1          2.4
12  COc1cc(C=C2C(=O)Nc3ccc(Br)c(C)c32)cc(OC)c1OC         46.1
13  CNS(=O)(=O)c1ccc2c(c1)C(=Cc1cc(OC)ccc1OC)C(=O)N2         -0.3
14  O=C1Nc2ccc(S(=O)(=O)N3CCOCC3)cc2C1=Cc1coc2ccc(Cl)cc2c1=O         21.9
15  Cc1c(Br)ccc2c1C(=Cc1coc3ccccc3c1=O)C(=O)N2         15.9

====

Entries and their Biochem EGFR %Inhibition
target: EGFR (Homo sapiens); construct: Add 7 ug A431 cell lysate per well (EGFR source); endogenous in cells; host or cells: A431; assay: EGFR ELISA assay (in vitro kinase activity, EGFR captured from A431 cell lysate); format: biochemical; set-up: concentration or dose not given beside the values
Sequence (P00533 25-1210): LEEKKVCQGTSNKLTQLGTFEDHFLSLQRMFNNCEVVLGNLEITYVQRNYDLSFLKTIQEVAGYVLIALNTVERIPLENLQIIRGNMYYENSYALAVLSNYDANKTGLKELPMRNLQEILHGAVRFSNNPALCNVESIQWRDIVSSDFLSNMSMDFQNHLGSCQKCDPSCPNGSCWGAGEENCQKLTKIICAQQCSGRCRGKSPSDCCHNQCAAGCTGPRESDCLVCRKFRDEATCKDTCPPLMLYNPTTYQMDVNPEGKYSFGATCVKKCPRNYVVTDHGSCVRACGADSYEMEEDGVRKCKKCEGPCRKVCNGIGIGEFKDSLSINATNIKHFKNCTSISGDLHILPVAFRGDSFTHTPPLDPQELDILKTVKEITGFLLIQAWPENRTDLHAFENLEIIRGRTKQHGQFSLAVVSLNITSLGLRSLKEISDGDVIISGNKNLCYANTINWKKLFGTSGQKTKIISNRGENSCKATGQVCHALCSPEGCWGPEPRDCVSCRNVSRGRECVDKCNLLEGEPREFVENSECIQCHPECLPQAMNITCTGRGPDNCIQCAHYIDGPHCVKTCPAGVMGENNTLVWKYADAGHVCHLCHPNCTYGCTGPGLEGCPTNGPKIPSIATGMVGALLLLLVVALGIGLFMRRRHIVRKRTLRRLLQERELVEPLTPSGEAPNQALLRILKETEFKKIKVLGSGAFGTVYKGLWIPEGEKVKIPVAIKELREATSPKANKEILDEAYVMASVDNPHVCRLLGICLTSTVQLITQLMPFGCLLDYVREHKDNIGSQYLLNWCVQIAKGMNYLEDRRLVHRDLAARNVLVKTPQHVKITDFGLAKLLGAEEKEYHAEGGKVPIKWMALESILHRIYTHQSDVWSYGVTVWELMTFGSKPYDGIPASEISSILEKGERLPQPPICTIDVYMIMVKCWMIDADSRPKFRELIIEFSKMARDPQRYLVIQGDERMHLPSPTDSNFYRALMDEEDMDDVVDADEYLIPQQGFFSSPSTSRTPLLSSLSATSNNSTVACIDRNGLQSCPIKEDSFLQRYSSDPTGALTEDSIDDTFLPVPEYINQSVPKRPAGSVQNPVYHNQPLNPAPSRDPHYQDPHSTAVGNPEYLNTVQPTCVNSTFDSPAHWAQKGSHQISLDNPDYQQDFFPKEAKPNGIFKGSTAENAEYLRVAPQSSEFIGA
parameter: Biochem EGFR %Inhibition (%)

> print(dat)
                                   compound  measurement.unit  measurement
1  CCOc1cccc(C=C2C(=O)Nc3ccc(S(=O)(=O)N4CCOCC4)cc32)c1O [10734/F02]                 %          0.7
2  COc1ccc(C=C2C(=O)Nc3ccc(S(=O)(=O)Nc4ccc(C(F)(F)F)cc4)cc32)cc1OC [10720/E04]                 %         -2.7
3  Cc1cc(C)c(C=C2C(=O)Nc3ccc(Br)c(C)c32)[nH]1 [10721/C08]                 %         38.3
4  O=C1Nc2ccc(S(=O)(=O)N3CCOCC3)cc2C1=Cc1c[nH]cn1 [10725/F11]                 %         20.8
5  COc1c(Br)cc(C=C2C(=O)Nc3ccc(CCCl)cc32)cc1C(C)(C)C [10732/G07]                 %        -21.9
6  CCc1cc(CC)c(C=C2C(=O)Nc3ccc(S(=O)(=O)N4CCOCC4)cc32)[nH]1 [10727/F03]                 %         36.8
7  O=C1Nc2ccc(CCCl)cc2C1=Cc1c(O)cc(O)cc1O [10722/G03]                 %          4.1
8  O=C1Nc2c(Br)cc(Br)cc2C1=Cc1ccc(O)c(O)c1O [10723/A02]                 %         97.8
